Test system: HBV (HepG2.117 cell line, inducibly HBV producing)
assay.comment: Anti-HBV activity: intracellular HBV DNA by real-time PCR in HepG2.117 cells after 3 days of treatment
Assay type: cell-based, hepatitis B virus
run.parameters: Hepatitis B virus, HepG2.117, 72 h, HepG2.117 cells, 3 days of treatment, intracellular HBV DNA by real-time PCR; mean value; read-out: EC50 (μM, mean value)
Procedure: The anti HBV activity was measured using the HepG2.117 cell line, a stable, inducibly HBV producing cell line, which replicates HBV in the absence of doxycycline (Tet-off system). The HepG2 cell line is available from ATCCR under number HB-8065. Transfection of the HepG2 cell line can be as described in Sun and Nassal 2006 Journal of Hepatology 45 (2006) 636-645 “Stable HepG2- and Huh7-based human hepatoma cell lines for efficient regulated expression of infectious hepatitis B virus”. […]
experimental.readout: log10(EC50) (log10 of the value in µM)
Scale type: logarithmic (base 10). Underlying EC50 unit: µM.

Some solved entries appear below for comparison.
CC(C)Nc1nc2c(c(=O)n1[C@H]1CC[C@@H](S(C)(=O)=O)CC1)C[C@@H](C)N(C(=O)c1ccc(Cl)c(Cl)c1)C2; -0.96
COc1ccc(CNc2nc3c(c(=O)[nH]2)CCN(C(=O)c2ccc(Cl)c(Cl)c2)C3)cc1; 0.61
CNc1nc2c(c(=O)n1-c1ccccc1OC)CCN(C(=O)c1ccc(Cl)c(Cl)c1)C2; 0.81
CNC(=O)c1ccc(-n2c(N[C@H](C)c3ccccn3)nc3c(c2=O)C[C@@H](C)N(C(=O)c2ccc(Cl)c(Cl)c2)C3)cc1 (single isomer, unassigned); -0.57
COc1ccc(CNc2nc3c(c(=O)n2-c2ccnn2C)CCN(C(=O)c2ccc(Cl)c(Cl)c2)C3)cc1; 0.27

Report log10(EC50) for every entry below.
1. COc1ccc(Cn2c(N)nc3c(c2=O)CCN(C(=O)c2ccc(Cl)c(Cl)c2)C3)cc1
2. COc1ccc(CNc2nc3c(c(=O)[nH]2)C[C@H](C)N(C(=O)c2ccc(Cl)c(Cl)c2)C3)cc1 [Compound C63B]

Result:
1: 0.98; 2: 0.21
